- Target of assay: T1, PCSK9Δhelix (human, Chemically biotinylated in the phage ELISAs; the site is not given.)
- T1 construct: construct M1-Q692 with engineered TEV site, cleaved by TEV; also called His-PCSK9Δhelix; open groove PCSK9Δhelix
- T1 sequence (prodomain, as listed by the source mutant limits assumed, chain 1 of 2): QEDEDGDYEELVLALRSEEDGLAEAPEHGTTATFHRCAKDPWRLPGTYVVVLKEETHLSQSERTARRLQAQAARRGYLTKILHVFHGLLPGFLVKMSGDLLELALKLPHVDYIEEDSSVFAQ
- T1 sequence (chain, as listed by the source mutant limits assumed, chain 2 of 2): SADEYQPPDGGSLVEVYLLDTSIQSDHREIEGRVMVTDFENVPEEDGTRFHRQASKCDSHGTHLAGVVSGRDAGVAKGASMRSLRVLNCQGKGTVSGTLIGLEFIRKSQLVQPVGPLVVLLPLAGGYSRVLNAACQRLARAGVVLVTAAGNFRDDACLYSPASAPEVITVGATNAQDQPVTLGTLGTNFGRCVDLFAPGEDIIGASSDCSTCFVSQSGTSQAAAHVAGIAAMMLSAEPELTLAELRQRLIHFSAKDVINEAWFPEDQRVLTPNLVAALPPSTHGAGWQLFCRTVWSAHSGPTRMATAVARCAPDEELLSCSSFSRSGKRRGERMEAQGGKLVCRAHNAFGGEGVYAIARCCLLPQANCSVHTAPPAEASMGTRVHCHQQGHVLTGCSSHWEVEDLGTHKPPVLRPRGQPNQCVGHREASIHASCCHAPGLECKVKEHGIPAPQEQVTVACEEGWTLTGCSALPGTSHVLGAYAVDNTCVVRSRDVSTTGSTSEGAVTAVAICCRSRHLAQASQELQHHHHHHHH
- Protocol description: phage spot ELISA
Output met for records whose s/n ratio is lower than 20, not met for records at or above 20.

In [3]: df
Out[3]:
                                     binder  assigned_category
0  TAFTSWEEYLDWVGSGRCESKGWANTCVSE [SEQ ID NO 362]                met
1  TAFTSWEEYLDWVGSGCYPLCRVG [SEQ ID NO 355]            not met
2  TAFTSWEEYLDWVGSGCCSYGYEKCCNG [SEQ ID NO 349]            not met
3  TAFTSWEEYLDWVGSGQVTSLPQA [SEQ ID NO 363]                met

Prompt: Does the reported s/n ratio of the following binder sit strictly below 20? TAFTSWEEYLDWVGSGCLDRSGGCYTREGYLS [SEQ ID NO 353]
Completion: not met

Prompt: Does the reported s/n ratio of the following binder sit strictly below 20? TAFTSWEEYLDWVGSGKCDSHYIRGVVACH [SEQ ID NO 356]
Completion: not met

Prompt: Does the reported s/n ratio of the following binder sit strictly below 20? TAFTSWEEYLDWVGSGVCSDHYIGGKEVRC [SEQ ID NO 348]
Completion: met

Prompt: Does the reported s/n ratio of the following binder sit strictly below 20? TAFTSWEEYLDWVGSGRCGLAWCVVLVDQ [SEQ ID NO 365]
Completion: not met

Prompt: Does the reported s/n ratio of the following binder sit strictly below 20? TAFTSWEEYLDWVGSGGVLGVGGMWIA [SEQ ID NO 335]
Completion: not met
